Biological target: Dual specificity protein phosphatase 6 (Homo sapiens) (UniProt Q16828)
Sequence (Q16828 whole entry, looked up): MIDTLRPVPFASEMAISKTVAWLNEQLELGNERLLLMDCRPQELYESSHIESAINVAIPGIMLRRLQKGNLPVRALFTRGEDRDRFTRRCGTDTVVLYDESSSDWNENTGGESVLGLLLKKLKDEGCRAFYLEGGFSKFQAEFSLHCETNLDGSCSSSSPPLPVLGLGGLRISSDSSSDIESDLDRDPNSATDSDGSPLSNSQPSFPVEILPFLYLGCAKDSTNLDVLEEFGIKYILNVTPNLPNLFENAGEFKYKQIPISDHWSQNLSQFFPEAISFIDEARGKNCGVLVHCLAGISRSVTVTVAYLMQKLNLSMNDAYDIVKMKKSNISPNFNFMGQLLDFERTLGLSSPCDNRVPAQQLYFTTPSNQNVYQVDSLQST
Test: DUSP6 inhibitors restoring Erk phosphorylation by chemical complementation, primary imaging in DUSP6-transfected HeLa (AID 609);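 for inhibition: phospho-Erk level distribution per well compared with pooled transfected vehicle control wells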
Conditions: HeLa MKP-3 transfected, phospho-Erk imaging KS statistic; at 10 µM; stronger effect = higher value; cells stimulated with TPA for 15 min
Measured Metric: inhibition (%)

COC(=O)CCC(=O)CN
14.6
COc1cccc(C2/C(=C(/O)c3cnn(-c4ccccc4)c3C)C(=O)C(=O)N2CCN(C)C)c1OC (centres undefined)
-7.01
COc1cccc(C2=CC(c3ccccc3)n3ncnc3N2)c1 (centres undefined)
-8.76
Cc1cc(C)n(-c2nnc(C)n2/N=C/c2ccccc2F)n1
9.82
CCOC(=O)c1c(CN2CCCCC2)oc2ccc(OC)cc12
-7.01
Cc1nc(-c2coc3cc(OCC(=O)O)ccc3c2=O)cs1
11.9
COCCCN1C(=O)C(O)=C(C(=O)c2ccco2)C1c1ccc(Br)cc1 (centres undefined)
-4.7
COc1ccc(Cn2c(O)cc(=O)[nH]c2=O)cc1
11.9
CC(=O)OCC[N+](C)(C)C
-0.493
COc1cccc(-c2nn3c(-c4ccccn4)nnc3s2)c1
15.5
CCCCOc1ccccc1/C=c1/sc2nc(-c3oc4ccccc4c3C)nn2c1=O
2.46
COc1cccc(COc2nc3c(c(=O)n(C)c(=O)n3C)n2C)c1
-7.28
CCOC(=O)c1[nH]c2ccc(Br)cc2c1NC(=O)CCN1CCC(C(=O)OCC)CC1
-0.674
CCN(CC)CCNC(=O)c1ccc(NC(C)=O)cc1
5.79
CCc1cc2c(=O)c(-c3cscn3)coc2c(CN(C)C)c1O
1.9e-07
Cc1nn(-c2ccccc2)c2c1C(=O)NC(=O)C(C)(C)C2
-5.81
CC(=O)OCC(=O)[C@H]1CC[C@H]2[C@@H]3CCC4=CC(=O)CC[C@]4(C)[C@H]3CC[C@]12C
11.3
CC(C)C(=O)N1CCN(c2nc(-c3ccccc3)c3c(c2C#N)CCCC3)CC1
-7.67
CN1CCN(c2nc3c(c(=O)n(C)c(=O)n3C)n2Cc2cccc3ccccc23)CC1
-13.1
CCN(CC)c1ccc2cc(-c3nnc(-c4ccncc4)o3)c(=O)oc2c1
72.4
Cc1c(/C(O)=C2\C(=O)C(=O)N(CCCN(C)C)C2c2ccccc2)cnn1-c1ccccc1 (centres undefined)
1.6e-07
CCCCn1c2nc3ccccc3nc2c2c(=O)n(CC(C)C)cnc21
17.4
CN1CCN(CCCCOc2ccc(F)cc2)CC1
7.48
CCOC(=O)CCCCC(=O)NC(CO)C(=O)NC (centres undefined)
22.1

====

Molecular target: Dual specificity protein phosphatase 6 (Homo sapiens)
Assay: DUSP6 inhibitors restoring Erk phosphorylation by chemical complementation, primary imaging in DUSP6-transfected HeLa (AID 609);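 for inhibition: phospho-Erk level distribution per well compared with pooled transfected vehicle control wells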
Settings: HeLa MKP-3 transfected, phospho-Erk imaging KS statistic; at 10 µM; stronger effect = higher value; cells stimulated with TPA for 15 min
Returns rule met if the recorded inhibition is greater than or equal to 10%, and rule not met otherwise.

COc1ccc(C(=O)Nc2nc(N)n(-c3ccccc3)n2)cc1OC
rule not met
COc1c(O)ccc2cnn(-c3ccccc3C)c(=O)c12
rule not met
CNC(=O)C1CC(=O)N(Cc2ccccc2)C(=Nc2ccc(OC)cc2)S1 (stereo unspecified)
rule not met
CC(C)c1nc(N2CCOCC2)c(C#N)c2c1CCC2
rule met
COC(=O)c1c(NC(=O)c2nn(C)cc2Cl)sc2c1CCCC2
rule not met
Clc1ccc(-n2ncc3c(NCCCn4ccnc4)ncnc32)cc1
rule not met
Nc1ccc(S(=O)(=O)c2ccc(N)cc2)cc1
rule met
C=CCOc1nc(-c2ccncc2)nc2ccccc12
rule met
CC(=O)c1cc(C#N)c(SCC(=O)C(C)(C)C)nc1C
rule not met
COc1cc(C2CC(C(F)(F)F)n3ncc(C(=O)O)c3N2)cc(OC)c1OC (stereo unspecified)
rule not met

====

Experiment: DUSP6 inhibitors restoring Erk phosphorylation by chemical complementation, primary imaging in DUSP6-transfected HeLa (AID 609)
Details: HeLa MKP-3 transfected, phospho-Erk imaging KS statistic; measured here: nuclear pErk red intensity z-score; at 10 µM; stronger effect = higher value; cells stimulated with TPA for 15 min
Returns y if the recorded z-score is greater than or equal to -0.09, and n otherwise.

CCN(CC)CCCn1c(C)cc2c(c1=O)C(c1ccc(OC)c(OC)c1OC)C(C#N)=C(N)O2 (stereo not drawn)
y
O=c1[nH]nc2n1CCCCC2
n
c1cc(-c2nnc3sc(C4CCCCC4)nn23)ccn1
y
CC(C)Oc1ccc(/C(O)=C2/C(=O)C(=O)N(CCN(C)C)C2c2ccco2)cc1 (stereo not drawn)
n
Cc1cccc(N2C(=O)CC(N3CCN(Cc4ccc(Cl)cc4)CC3)C2=O)c1 (stereo not drawn)
n
Cc1nc2c(c(=O)n1CC1CCCO1)c1nc3ccccc3nc1n2CCC(C)C (stereo not drawn)
y
CCOC(=O)c1nc(N)c(C(=O)OCC)[nH]1
n
CN1C(=O)N(c2ccccc2)C(Nc2nncs2)C1(C)C (stereo not drawn)
y
CCCCc1c(C)c2ccc(OCC(C)=O)cc2oc1=O
n
Nc1ncnc2nc(SCc3ccccc3)[nH]c12
y
CCOc1ccc(-c2nnc3sc(COc4ccccc4)nn23)cc1
y
CCNc1nc(Oc2ccccc2)nc(OC(C)C(=O)OCC)n1 (stereo not drawn)
y
C[C@@H]1CCC[C@H](C)N1NC(=O)c1ccc(Cl)c(S(N)(=O)=O)c1
n
O=C(Nc1ccccn1)NC(C(F)(F)F)C(F)(F)F
y
O=C(NC1CCS(=O)(=O)C1)N1CCCCC1 (stereo not drawn)
y
Nc1nonc1OCCc1ccccc1
y
COc1ccccc1-n1c(=O)c2c3c(sc2n2c(SC)nnc12)CCC3
y
COC(=O)c1ccc(C2/C(=C(/O)c3ccc(OC)cc3)C(=O)C(=O)N2c2cc(C)on2)cc1 (stereo not drawn)
n
CC(C)Oc1ccc(C(=O)CCN2CCCCC2)cc1
y
COC(=O)c1nn2c(C(F)(F)F)cc(-c3ccc(Br)o3)nc2c1Br
y
Cc1ccc(C2/C(=C(\O)c3cnn(-c4ccccc4)c3C)C(=O)C(=O)N2CCN(C)C)o1 (stereo not drawn)
y
C[C@]12CCC(=O)C=C1CC[C@@H]1[C@@H]2[C@@H](O)C[C@@]2(C)[C@H]1CC[C@]2(O)C(=O)CO
y
CSc1nc2sc3c(c2c(=O)[nH]1)CCC(C)C3 (stereo not drawn)
n

====

Biological target: Voltage-gated potassium channel subunit beta-2 (Rattus norvegicus)
Test: KvBeta enzyme negative modulators, primary screen, biochemical, NADPH fluorescence (AID 622);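 note: slope of raw intensity against log time taken from 70 to 1610 s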
Details: recombinant KvBeta, 4-cyanobenzaldehyde reduction, at 10 µM, stronger effect = higher value
Measured Metric: fluorescence slope

C[C@]12CC[C@@H]3c4ccc(OS(=O)(=O)O)cc4CC[C@H]3[C@@H]1CCC2=O
-0.507
Nc1nc(Cl)nc2c1ncn2[C@@H]1O[C@H](CO)[C@@H](O)[C@H]1O
-0.439
CCOC(=O)c1sc2c(c1C)c(=O)c(C(=O)OCC)cn2CC
-0.376
C[C@]12CC[C@@H]3c4ccc(O)cc4CC[C@H]3[C@@H]1CCC2=O
-0.463
CN1C(=O)c2c(sc3c2CCCC3)NC1c1ccccc1O (stereo not given)
-0.47

====

Molecular target: Alpha-2C adrenergic receptor (Homo sapiens)
Assay: modulators of alpha2C/GIRK thallium flux, primary screen, cell-based, HEK293 alpha2C/GIRK1/2 (AID 624);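 note: slope of fluorescence ratio to pre-addition baseline per second over 15 to 24 s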
Conditions: thallium flux BTC fluorescence, at 10 µM, actives lie on both sides
Returns T if the recorded slope is greater than or equal to 0.005, and F otherwise.

Clc1ccc(-c2nnc3sc(Cc4cccs4)nn23)cc1
F
CC(=O)[C@@]1(O)CC[C@H]2[C@@H]3C[C@H](C)C4=CC(=O)CC[C@]4(C)[C@H]3CC[C@@]21C
T
COc1cc2[nH]c3c(=O)n(CCN(C(C)C)C(C)C)cnc3c2cc1OC
F

====

Assay: inhibitors of E-selectin induction by TNFa, primary screen, imaging, HUVEC, immunofluorescence, MLSMR starter and 10KST1 sets (AID 487);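 note: 100% = median nuclei count of all wells on the same plate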
Conditions: HUVEC TNFalpha-induced E-selectin immunofluorescence imaging, at 2 µM; measured here: cell number, toxicity
Measured Metric: nuclei count (%)

CCOc1ccc(Br)cc1CC(=O)O
90.5
O=C(CCN1C(=O)c2ccccc2C1=O)OCN1C(=O)c2ccccc2C1=O
151
COc1ccc(C2=Nn3c(nnc3-c3cccnc3)SC2)cc1OC
152
CC(C)(C)c1nnc2sc(SCC(=O)c3ccccc3)nn2c1=O
105
CCOC(=O)Cc1nnc(Nc2cccc(O)c2)c2ccccc12
131
NC(N)=NC(=O)c1nc(Cl)c(N)nc1N
114
COCCNc1nc2c(c(=O)n(Cc3ccc(OC)cc3)c(=O)n2C)n1C
128
CN1CCc2c(sc3ncn4nc(-c5ccccc5O)nc4c23)C1
125
O=C(O)c1ccc(COc2c(F)c(F)c(F)c(F)c2F)o1
129
CN(C)c1ccc(C=NCC2(O)CCOC(C)(C)C2)cc1 (stereo not drawn)
144
N/C(=N\c1nc2ccccc2o1)NC(=O)c1ccccc1NC(=O)c1ccccc1
160
COc1ccc(CCn2c(C)ccc2C)cc1OC
112
Cc1cc(C)c(C#N)c(SCc2[nH]nc3c2C(c2ccccc2)C(C#N)=C(N)O3)n1 (stereo not drawn)
114
Cc1nc2c(=O)n(C)c(=O)[nH]c2n1Cc1ccccc1
153
O=C(NCc1cccnc1)/C(=N\O)c1ccccc1
97.2
CCn1nc(NC(=O)c2cccnc2)c2cc3ccccc3nc21
133
CC1(C)Cc2c(C#N)c(OCC(=O)c3ccc(Cl)cc3)nc(-c3ccoc3)c2CO1
170
Cc1cccc(OCC(=O)N2CCC(N3CCOCC3)CC2)c1
149
CCOC(=O)C1=C(C)N=C2SC(C)C(=O)N2C1c1ccc(OC(C)=O)c(OC)c1 (stereo not drawn)
184
CCN(CC)CCN1C(=O)C(=O)/C(=C(/O)c2ccc(F)cc2)C1c1cccnc1 (stereo not drawn)
128
Cc1nc(NS(=O)(=O)c2ccccc2)sc1NC(=O)OC(C)C
138
CCOc1cccc(C2C(C#N)=C(N)Oc3cc(C)oc(=O)c32)c1OCC (stereo not drawn)
143
Oc1ccccc1-c1nc(NCc2ccco2)c2ccccc2n1
151
